Where do these numbers come from? They come from ChEMBL document CHEMBL3507680.

# cytotoxicity at 70.5 h annotations
test_description: Human HepG2 cell viability assay in 384 well format
Type: toxicity, cell-based
Parameters: dose 125 nL, time 70.5 hour; concentration not given beside the values
condition_label: HepG2 cells, read-out: Inhibition
attribute_measured: cytotoxicity at 70.5 h (%)

molecule="CCC(O)CN(CC(=O)Nc1cc(C)no1)c1ccccc1 (configuration not stated)" reported_result=-3.59
molecule="O=C1NC2(CCN(C(=O)Cc3ccsc3)CC2)CC1c1ccncc1 (configuration not stated)" reported_result=-4.21
molecule="Cn1cc(CNC2CCc3ncnn3C2)c(-c2cccnc2)n1 (configuration not stated)" reported_result=-5.95
molecule=COCc1cc(NCc2cc(F)ccc2F)n2nccc2n1 reported_result=-0.226
molecule="CCCc1n[nH]cc1C(=O)N1CCCC(c2nccn2CC2CC2)C1 (configuration not stated)" reported_result=-6.16
molecule=CCCn1cc(C(=O)N[C@H]2CC[C@H](n3cnnc3)CC2)c(C)n1 reported_result=0.742
molecule=Cc1nc(-c2ccccc2)sc1CSCCS(C)(=O)=O reported_result=1.82
molecule=CC(C)n1cnnc1CN(C)C(=O)c1cccnc1O reported_result=-4.11
molecule=CC(C)c1nc(CN(C)C(=O)CNC(N)=O)cs1 reported_result=-6.72
molecule=O=C1N(c2ccc(F)cc2)Cc2nc(=O)n(Cc3cccc(Cl)c3)n21 reported_result=-0.858
molecule="Cn1ncc2c1NC(=O)CC2c1c(Cl)cccc1Cl (configuration not stated)" reported_result=-16.4
molecule=Cc1cccnc1N1CCN(C(=O)CCc2cn3ccccc3n2)CC1 reported_result=15.3

###

test_description: Human HepG2 cell viability assay in 384 well format
Format: toxicity, cell-based
Set-up: dose 125 nL, time 70.5 hour; concentration not given beside the values
condition_label: HepG2 cells, read-out: Inhibition
attribute_measured: cytotoxicity at 70.5 h (%)

compound=COc1ccc(Br)c(C(=O)NCC2CCN(S(=O)(=O)C3CC3)CC2)c1 reported_result=16.8
compound=O=C(c1ccco1)N1CCC2(CC1)C(=O)Nc1ccccc12 reported_result=-9.22
compound="CC(C)CN1CCCC1c1ccc(C(=O)Nc2cccnc2)s1 (centres undefined)" reported_result=0.0684
compound="Cc1cnn(CC2CN(CC(=O)N(C)c3nccs3)CCO2)c1 (centres undefined)" reported_result=-2.03
compound="CCc1noc(C2CCCCN2C(=O)c2ccc3c(c2)OCO3)n1 (centres undefined)" reported_result=-4.04
compound=CS(=O)(=O)N1C[C@H](C(=O)Nc2cccnc2)C[C@H]2OCC[C@H]21 reported_result=6.21
compound=O=C(O)c1ccccc1-n1cnc(CN2CCc3ccccc3C2)c1 reported_result=27.7
compound=COc1ccccc1C(=O)NCCC(=O)Nc1c(C)nn(C)c1C reported_result=-12.6
compound=Cc1cc(NC(=O)N2CCN(c3cccs3)CC2)ccc1C(N)=O reported_result=8.16
compound=Cc1nnc2n1CCN(Cc1csc(-c3ccsc3)n1)C2 reported_result=-5.37
compound=CC(C)CC(=O)N1CC(=O)c2sc(Nc3ccc(F)cc3F)nc2C1 reported_result=0.35
compound=CC(C)c1nnc(NC(=O)N(C)Cc2ccc(C(N)=O)cc2)s1 reported_result=-4.8
compound="COCCCNC(=O)N1CCCC(c2nncn2C)C1 (centres undefined)" reported_result=-12.4
compound=O=C1COC2(CCN(Cc3ccc(F)cc3)CC2)CN1 reported_result=3.53
compound="COCCN1CCN(C(=O)C(c2cccc(F)c2)N(C)C)CC1 (centres undefined)" reported_result=1.27
compound="COCC(=O)N1Cc2nccn2CC(CN(C)Cc2cccnc2)C1 (centres undefined)" reported_result=-7.06
compound="Fc1ccc(CN2CCCC2Cn2cccn2)c2ncccc12 (centres undefined)" reported_result=-10.6
compound="Cc1cc(NC(=O)CN2CCCC2c2c(C)nn(C)c2C)on1 (centres undefined)" reported_result=-2.37
compound="O=C(c1cocn1)N1CCC2(CC1)COC(COCc1ccccn1)C2 (centres undefined)" reported_result=0.202
compound="CN1CCOC2(CCCN(C(=O)C3CCCCC3)C2)C1 (centres undefined)" reported_result=34.5
compound="CC(C)c1nc(C2CCCN2CCc2ccccn2)no1 (centres undefined)" reported_result=-15.3
compound="NC(CC1CCCCC1)c1ccccc1 (centres undefined)" reported_result=5.79
compound=C1CC(CN2C[C@@H]3C[C@@H](c4nnc(C5CC5)o4)O[C@@H]3C2)CCO1 reported_result=-7.69
compound=O=C(Cc1cccnc1)N1CC(Cc2nccc3cc[nH]c23)C1 reported_result=6.89

###

test_description: Human HepG2 cell viability assay in 384 well format
Assay type: toxicity, cell-based
Design: dose 125 nL, time 70.5 hour; concentration not given beside the values
condition_label: HepG2 cells, read-out: Inhibition
Consider the following molecules and their measured cytotoxicity at 70.5 h readings.
attribute_measured: cytotoxicity at 70.5 h (%)

molecule="Cc1ncnc(N2CCN(C(=O)C3CC4(CCNCC4)CN3)CC2)c1C (centres undefined)" output_unit=% reported_result=13.5
molecule="Cc1csc(C2CCCN(C(=O)c3cnc[nH]3)C2)n1 (centres undefined)" output_unit=% reported_result=-0.708
molecule=Cc1ccnc(NC(=O)C2CCN(CCCn3ccnc3C)CC2)c1 output_unit=% reported_result=-13
molecule="O=c1[nH]nc(SCC2CCCCO2)n1C1CC1 (centres undefined)" output_unit=% reported_result=28.8
molecule=O=C1CCC2(CCN(Cc3ccoc3)CC2)N1OCc1ccccc1F output_unit=% reported_result=-7.61
molecule="O=C1CC(c2cccs2)c2cnn(C3CCCC3)c2N1 (centres undefined)" output_unit=% reported_result=6.7
molecule=COc1c(CNCCNC(=O)c2cccc(C)c2)c(C)nn1C output_unit=% reported_result=3.54
molecule=CC(=O)c1ccc(OCC(=O)c2cccn2C)cc1 output_unit=% reported_result=-0.625
molecule="COc1ccc(S(=O)(=O)N2CCC(O)(CN(C)C)C2)cc1 (centres undefined)" output_unit=% reported_result=-4.76
molecule="CCOCC(O)CN1CCN(C(=O)c2cc(C)ccc2F)CC1 (centres undefined)" output_unit=% reported_result=-3.47
molecule="Cc1noc(C2CCCN2C(=O)C2CCC2)n1 (centres undefined)" output_unit=% reported_result=-11.5
molecule="CN(CC(=O)NCCC#N)C(c1ccccc1)c1ccc(F)cc1 (centres undefined)" output_unit=% reported_result=-15.7
molecule=CSc1nc2cc(C)n(CC(N)=O)c2c(=O)n1CC(C)C output_unit=% reported_result=0.849
molecule=O=C(c1cnccn1)N1CC[C@H]2[C@@H]1CCC(=O)N2c1cccnc1 output_unit=% reported_result=-17.4
molecule="CC(c1ccco1)N(C(=O)c1cc2c([nH]c1=O)CCCC2=O)C1CC1 (centres undefined)" output_unit=% reported_result=2.68
molecule=O=C(c1cccc(-c2ncc[nH]2)c1)N1CC[C@H](CO)[C@@H](O)C1 output_unit=% reported_result=-2.73
molecule=COc1ccccc1CC(=O)N1C[C@H]2CC[C@@H]1CN(Cc1cscn1)C2 output_unit=% reported_result=-12.1
molecule=COCc1cc(NCc2cccnc2Oc2ccc(C)nc2)ncn1 output_unit=% reported_result=-12.4
molecule="c1ccc(CCN2CCCC(c3noc(C4CC4)n3)C2)cc1 (centres undefined)" output_unit=% reported_result=-5.63
molecule="Cc1cnn(C2CCCN(C(=O)CCCOc3ccccc3F)C2)c1 (centres undefined)" output_unit=% reported_result=-5.78
molecule="CCOc1ccc(NC(C)c2nnnn2-c2ccccc2)cc1CO (centres undefined)" output_unit=% reported_result=-66.6
molecule="CCS(=O)(=O)N1CCC(OCCCc2ccccc2)C1 (centres undefined)" output_unit=% reported_result=-3.57
molecule="c1ccn2c(C3CCCN3Cc3nc(C4CC4)no3)nnc2c1 (centres undefined)" output_unit=% reported_result=-21.8
molecule="COCc1cc(N(C)CCC(O)c2ccccc2)n2nccc2n1 (centres undefined)" output_unit=% reported_result=-7.44

###

test_description: Human HepG2 cell viability assay in 384 well format
Type: toxicity, cell-based
Parameters: dose 125 nL, time 70.5 hour; concentration not given beside the values
condition_label: HepG2 cells, read-out: Inhibition
Measured cytotoxicity at 70.5 h values are reported for all entries that follow.
attribute_measured: cytotoxicity at 70.5 h (%)

compound="Cc1cccc(C(C)CNC(=O)N2CCOCC3(CCOCC3)C2)c1 (stereo unspecified)" reported_result=-4.47
compound="CC(C)c1nc(CN(C)C2CCCN(c3cccnn3)C2)no1 (stereo unspecified)" reported_result=-5.62
compound=COCCO[C@H]1CCN(c2cc(OC)ncn2)[C@H]1Cc1cnn(C)c1 reported_result=-4.71
compound=CC(C)c1nnc2n1CCN(C(=O)c1ccc3c(c1)COC3)C2 reported_result=-0.783
compound="NC(=O)CC1CCCN(C(=O)NCC2(c3cccs3)CCCC2)C1 (stereo unspecified)" reported_result=-0.84
compound=CCc1ncncc1C(=O)N1CCN(Cc2ccsc2)CC1 reported_result=7.59
compound=Cc1ccnc(NS(=O)(=O)c2cc(C(N)=O)n(C)c2)c1 reported_result=0.984
compound="Cc1nc(CN2CCOCC3(CCCN(c4cnccn4)C3)C2)cs1 (stereo unspecified)" reported_result=-2.38
compound="CCS(=O)(=O)NCCN1CCN(C(C#N)c2ccccc2)CC1 (stereo unspecified)" reported_result=-9.85
compound="CN(Cc1ccc([S+](C)[O-])cc1)c1ccc(C(F)(F)F)cn1 (stereo unspecified)" reported_result=-4.29
compound=CN(C)c1ccc(CNc2cncc(-n3cccn3)n2)cc1 reported_result=-4.47
